For each of the molecules below, state its AC50.
Biological target: human PAH with the R408W mutation (A375 R408W cells) (Homo sapiens, UniProt P00439, R408W)
Construct: expressed in transfected cells
Sequence (P00439 1-452 R408W): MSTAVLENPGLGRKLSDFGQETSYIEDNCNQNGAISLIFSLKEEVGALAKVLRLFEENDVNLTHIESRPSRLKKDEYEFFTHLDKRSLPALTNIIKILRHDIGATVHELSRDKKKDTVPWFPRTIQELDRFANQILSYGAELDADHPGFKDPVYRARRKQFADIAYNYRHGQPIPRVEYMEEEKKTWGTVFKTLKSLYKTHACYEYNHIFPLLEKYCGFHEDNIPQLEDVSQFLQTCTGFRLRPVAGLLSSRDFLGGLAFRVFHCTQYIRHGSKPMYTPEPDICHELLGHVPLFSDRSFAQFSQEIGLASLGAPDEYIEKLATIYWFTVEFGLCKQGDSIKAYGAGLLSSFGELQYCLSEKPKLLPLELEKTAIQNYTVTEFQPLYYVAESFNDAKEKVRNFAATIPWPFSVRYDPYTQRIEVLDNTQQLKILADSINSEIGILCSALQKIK
Assay: Cell Based Phenylalanine Flux Assay
Settings: A375 R408W cells; 24 hrs with compound, then 20 μM sepiapterin and 800 μM 13C9,15N-Phenylalanine for 4 hours; 13C-Tyrosine by LC-MS; average where tested multiple times

Below are worked cases with known answers.
> print(dat)
                            molecule.smiles                               system.name  quantity          reading
1  COc1ccc2oc([C@@H]3c4nc[nH]c4CCN3C(=O)c3ccnn3C(F)F)nc2c1  human PAH with the R408W mutation (A375 R408W cells) (Homo sapiens, UniProt P00439, R408W)      AC50   500 to 1000 nM
2  Cc1cc(C(=O)N2CCc3[nH]cnc3[C@@H]2c2nc3cccc(F)c3o2)n(C)n1  human PAH with the R408W mutation (A375 R408W cells) (Homo sapiens, UniProt P00439, R408W)      AC50  1000 to 5000 nM
3  CC(C)(C)c1ncc(C(=O)N2CCc3[nH]cnc3[C@H]2c2nc3cc(F)ccc3o2)o1  human PAH with the R408W mutation (A375 R408W cells) (Homo sapiens, UniProt P00439, R408W)      AC50         ≤ 500 nM
4  Cn1nc(C(F)(F)F)nc1C(=O)N1CCc2[nH]cnc2[C@@H]1c1nc2ccccc2o1  human PAH with the R408W mutation (A375 R408W cells) (Homo sapiens, UniProt P00439, R408W)      AC50  1000 to 5000 nM
5  CC(C)(O)c1nc(C(F)F)c(C(=O)N2CCc3[nH]cnc3[C@@H]2c2nc3cc(OC(F)(F)F)ccc3o2)o1  human PAH with the R408W mutation (A375 R408W cells) (Homo sapiens, UniProt P00439, R408W)      AC50   500 to 1000 nM

List reported AC50 for each of these molecules:
1. O=C(c1nnc(-c2ccccn2)o1)N1CCc2[nH]cnc2[C@@H]1c1nc2c(F)ccc(F)c2o1
2. Cn1cc(-c2nnc(C(=O)N3CCc4[nH]cnc4[C@@H]3c3nc4ccc(F)c(F)c4o3)o2)cn1
3. Cc1ccc(-c2nnc(C(=O)N3CCc4[nH]cnc4[C@@H]3c3nc4cc(F)ccc4o3)o2)nc1
4. Cc1cccc2nc([C@@H]3c4nc[nH]c4CCN3C(=O)c3ccnn3C)oc12
5. C[C@H](O)c1nc(C(F)F)c(C(=O)N2CCc3[nH]cnc3[C@H]2c2nc3ccc(F)cc3o2)o1
6. Cc1ncoc1C(=O)N1Cc2[nH]cnc2[C@H]1c1nc2ccccc2o1
7. Cc1nc(-c2cnn(C)c2)oc1C(=O)N1CCc2[nH]cnc2[C@@H]1c1nc2cccc(F)c2o1
8. O=C(c1cnco1)N1CCc2[nH]cnc2[C@@H]1c1nc2ccccc2o1

500 to 1000 nM
1000 to 5000 nM
1000 to 5000 nM
≤ 500 nM
500 to 1000 nM
1000 to 5000 nM
1000 to 5000 nM
1000 to 5000 nM
